Biological target: UniProt P14902
Sequence (P14902 whole entry): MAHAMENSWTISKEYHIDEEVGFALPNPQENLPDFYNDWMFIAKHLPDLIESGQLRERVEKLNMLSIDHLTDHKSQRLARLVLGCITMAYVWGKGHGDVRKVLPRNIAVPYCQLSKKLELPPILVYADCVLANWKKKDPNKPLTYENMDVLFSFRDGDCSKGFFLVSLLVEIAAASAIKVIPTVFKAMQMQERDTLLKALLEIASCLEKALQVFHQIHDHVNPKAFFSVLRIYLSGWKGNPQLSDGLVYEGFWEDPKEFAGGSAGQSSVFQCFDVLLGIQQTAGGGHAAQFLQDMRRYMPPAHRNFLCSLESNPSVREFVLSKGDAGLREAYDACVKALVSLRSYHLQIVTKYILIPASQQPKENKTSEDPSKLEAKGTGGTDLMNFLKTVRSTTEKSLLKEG
Assay: IDO1 HeLa RapidFire MS assay (kynurenine detection by mass spectrometry)
Format: cell-based
Parameters: to induce the expression of indoleamine 2, 3-dioxygenase (IDO1)
Details: HeLa cells, pIC50, read-out: IDO1_HELA_PXC50 (converted)
Classification field. Basis: IC50. Definitions: low interval (below 20 nM), middle interval (20 nM to below 1000 nM), high interval (1000 nM or more)

[[record]]
compound = "CC[C@@H](CC(=O)O)c1ccc(N(CC(C)C)C2CCCCC2)c(Nc2nc(Cl)ns2)c1"
assigned_class = "low interval"

[[record]]
compound = "CC(C)CN(CC(C)C)c1ccc(C(C)CC(=O)O)cc1Nc1nncs1 (centres unmarked)"
assigned_class = "middle interval"

[[record]]
compound = "CC(=O)Nc1nnc(Nc2cc(C(C)CC(=O)O)ccc2N(CC(C)C)CC(C)C)s1 (centres unmarked)"
assigned_class = "high interval"

[[record]]
compound = "CC(C)CN(c1cc(F)c([C@H](C)CC(=O)O)cc1Nc1ccc(Cl)nc1)C1CCOCC1"
assigned_class = "low interval"

[[record]]
compound = "CC(C)CN(c1ccc(C(C)CC(=O)O)cc1NC1CCN(C)C1)C1CCCCC1 (centres unmarked)"
assigned_class = "high interval"


Please let me know in which category the item Cc1nnc(Nc2cc(-c3ccccc3C(=O)O)ccc2N(CC(C)C)CC(C)C)s1 belongs.
middle interval

Record CC(C)CN(c1ccc(C(C)CC(=O)O)cc1NC1=NC(=O)[C@@H](C)N1)C1CCCCC1 (some centres unmarked) — which class?
high interval

Lab log: CC(C)CN(c1ccc(C(C)OCC(=O)O)cc1Nc1ccc(C#N)cn1)C1CCCCC1 (centres unmarked) — assign IC50 category
low interval

Place this compound in its band: CC(C)CN(c1ccc([C@H](C)CC(=O)O)cc1Nc1nc(C(F)(F)F)ns1)C1CCOCC1
low interval

Please let me know in which category the item COc1ccnc(Nc2cc(C(C)CC(=O)O)ccc2N(CC(C)C)CC(C)C)n1.O=C(O)C(F)(F)F (centres unmarked) belongs.
high interval

Which category does the recorded IC50 put CC[C@H](CC(=O)O)c1ccc(N(CC(C)C)CC(C)C)c(Nc2nc(Cl)ns2)c1 in?
low interval

Exercise: read the entry CC(C)CN(CC(C)C)c1ccc(-c2ccccc2C(=O)O)cc1Nc1nc(Cl)ns1 and state which class it falls under.
middle interval

Band for CC(C)CN(CC(C)C)c1ccc(C(C)CC(=O)O)cc1Nc1nnc(NS(C)(=O)=O)s1 (centres unmarked) ?
high interval

Place this compound in its band: CC(C)CN(CC(C)C)c1ccc(C(C)CC(=O)O)cc1Nc1nnc(N)s1 (centres unmarked)
high interval

Class label required: CC(C)CN(c1ccc([C@H](C)CC(=O)O)cc1Nc1nnc(C2CC2)s1)C1CCOCC1
low interval

Hey, which category is CC(C)CN(CC(C)C)c1ccc(C(C)CC(=O)O)cc1NCc1noc(C2CC2)n1 (centres unmarked) in, do you know?
high interval

Any idea which band CC(C)CN(c1ccc(C(C)CC(=O)O)cc1NCc1ccccn1)C1CCCCC1 (centres unmarked) is in?
high interval

Any idea which band CC(C)CN(c1ccc(-c2ccccc2C(=O)O)cc1Nc1nc(C(F)(F)F)ns1)[C@H]1CC[C@H](O)CC1 is in?
low interval

Record CC(C)CN(c1ccc(-c2c[nH]nc2C(=O)O)cc1Nc1nc2ccccc2o1)C1CCCCC1 — which class?
high interval

Note: place this compound into its band. Item: COCc1nnc(Nc2cc([C@H](C)CC(=O)O)ccc2N(CC(C)C)C2CCOCC2)s1
middle interval

Entry CC(C)CN(c1ccc(-c2ccncc2C(=O)O)cc1Nc1nc2ccccc2o1)C1CCCCC1 belongs to which category?
middle interval

# bin lookup: classify CC(C)CN(c1ccc([C@H](C)CC(=O)O)cc1Nc1nc(C(F)(F)F)ns1)C1CCN(C(=O)OC(C)C)CC1 by its IC50
low interval
